# Test system: NCI-H522
# assay.text: NCI tumour cell line growth inhibition, 48 h
Activity calls are given as the source filed them. Cut-off read from the data, not from the text of the source: active = GI50 up to about 1.1 µM and inactive = higher.
readout.type: GI50

>  <compound>
COc1ccccc1C1C2=C(COC2=O)Oc2cc3c(cc21)OCO3 (stereo unspecified)

>  <system.under.test>
NCI-H522

>  <GI50>
0.619 µM (active)

$$$$
>  <compound>
CCOC(=O)/C(C#N)=C(N)/C(=N\Nc1cccc(C(F)(F)F)c1)C(=O)OCC

>  <system.under.test>
NCI-H522

>  <GI50>
> 100 µM (inactive)

$$$$
>  <compound>
O=C1c2cc3c(cc2CC12Cc1cc4c(cc1C2=O)CCC4)CCC3

>  <system.under.test>
NCI-H522

>  <GI50>
> 100 µM (inactive)

$$$$

Would you be so kind as to report GI50 for each listed record?
1. COc1ccc2c(c1)C(N)=C(c1ccccc1)C2=O
2. CC(C)c1ccc2c(c1)C=C1OC(=O)[C@]3(C)CCC[C@@]2(C)C13 (stereo partly specified)

Solution:
["> 100 µM (inactive)", "73.5 µM (inactive)"]

Would you be so kind as to report GI50 for each listed record?
1. CC1=CC=CC(C)(C)CC1(O[Si](C)(C)C)C(F)(F)F (stereo unspecified)
2. COc1ccc(NC(=O)CSc2nnc(Cc3ccccc3)o2)cc1
3. O=C1NC(N2CCOCC2)=N/C1=C\c1ccccc1O
4. Cc1ccccc1NC(=O)/C(=N/NC(=O)CC#N)C1C(=O)N(c2ccccc2)N=C1N (stereo unspecified)
5. c1cc(Sc2nc(Sc3ccncc3)nc(Sc3ccncc3)n2)ccn1

Solution:
1. 43.3 µM (inactive)
2. 53.7 µM (inactive)
3. > 100 µM (inactive)
4. 57.1 µM (inactive)
5. > 100 µM (inactive)

# Cc1cc(Cl)ccc1NC(=O)CCCC(=O)C(C(=O)c1ccccc1)c1ccccc1 (stereo unspecified) with NCI-H522: GI50 is > 100 µM (inactive)
